The values you see were collected from ChEMBL document CHEMBL5380809.

Can you tell me inhibition for the items I'm about to list?
tested_on: Sphingomyelin phosphodiesterase (Homo sapiens) (UniProt P17405)
Sequence (P17405 whole entry, the tested form may be a part): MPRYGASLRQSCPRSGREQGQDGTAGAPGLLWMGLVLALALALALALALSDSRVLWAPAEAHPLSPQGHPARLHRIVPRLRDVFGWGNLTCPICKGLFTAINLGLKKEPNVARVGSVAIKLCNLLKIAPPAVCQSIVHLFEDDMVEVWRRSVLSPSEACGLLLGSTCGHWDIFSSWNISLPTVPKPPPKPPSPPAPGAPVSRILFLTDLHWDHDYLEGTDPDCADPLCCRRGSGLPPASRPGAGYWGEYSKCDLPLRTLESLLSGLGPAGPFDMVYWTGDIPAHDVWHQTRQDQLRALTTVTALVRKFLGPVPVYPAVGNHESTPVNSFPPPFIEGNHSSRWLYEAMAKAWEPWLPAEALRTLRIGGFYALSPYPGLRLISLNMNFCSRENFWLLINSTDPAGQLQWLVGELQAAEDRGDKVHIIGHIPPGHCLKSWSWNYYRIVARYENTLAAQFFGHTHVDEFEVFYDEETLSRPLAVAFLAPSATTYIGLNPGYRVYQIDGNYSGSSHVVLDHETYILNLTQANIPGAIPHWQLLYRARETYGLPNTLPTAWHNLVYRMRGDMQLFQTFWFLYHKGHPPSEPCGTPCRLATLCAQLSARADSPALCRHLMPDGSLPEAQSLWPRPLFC
run_description: Inhibition of recombinant human aSMase (62 to 628 residues) using HMU-PC as substrate at 25 uM incubated for 2 hrs by fluorescence based assay relative to control
Give the value; after it, write the unit.

# input Given the entry CCCCOc1ccc(-c2nnc(C(=O)NO)o2)cc1 , report its measured inhibition.
# output 13%

# input Entry COc1cc(-c2nnc(C(=O)NO)o2)ccc1OCc1ccccc1 has what inhibition?
# output 60%

# input Consider the compound shown here: COc1cc(-c2nnc(C(=O)NO)o2)ccc1OCC(C)C What is its recorded inhibition?
# output 55%

# input Recorded inhibition of CCCCOc1ccc(-c2nnc(C(=O)NO)o2)cc1OC , please.
# output 57%

# input If you can, please state the reported inhibition value of O=C(NO)c1nnc(-c2ccc(OCc3ccccc3)cc2)o1 .
# output 3%
